Just for reference, patent US20230393140A1 is where these values come from.

- target under test: cRaf/K-Ras (G12V) PPI (Homo sapiens, UniProt P01116, G12V)
- Construct: b-Kras G12V (GppNHp) (aa 2-169); biotin (b-
- Sequence (P01116 2-169 isoform P01116-2 G12V): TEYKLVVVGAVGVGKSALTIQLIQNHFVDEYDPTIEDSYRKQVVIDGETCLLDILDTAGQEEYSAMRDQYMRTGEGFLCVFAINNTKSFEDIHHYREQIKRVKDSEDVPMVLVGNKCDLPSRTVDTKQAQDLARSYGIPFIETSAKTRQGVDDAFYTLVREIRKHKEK
- method summary: K-Ras-cRaf HTRF-based PPI profiling
- Assay type: biochemical
- condition set: 1% DMSO in reaction; compounds without fluorescein; 30 nM K-Ras G12V, 10 nM GST-cRaf; 30 min pre-incubation; read-out: K-Ras G12V Compound IC50
pIC50: −log10 of the molar value.
test readout: pIC50

- compound: "Cn1cnc(Cn2ccc3ccc(CNCc4[nH]c5ccccc5c4[C@H]4NC(=O)c5ccc(O)cc54)cc32)c1 [BI-2852, reference compound]"
  numeric value: 5.80

---

- target under test: cRaf/K-Ras (G12V) PPI (Homo sapiens, UniProt P01116, G12V)
- Construct: b-Kras G12V (GppNHp) (aa 2-169); biotin (b-
- method summary: K-Ras-cRaf HTRF-based PPI profiling
- Assay type: biochemical
- condition set: 10-concentration IC50 mode, 3-fold serial dilution; K-Ras G12V 30 nM, GST-cRaf 10 nM; read-out: IC50
pIC50: −log10 of the molar value.

- compound: "Cn1cnc(Cn2ccc3ccc(CNCc4[nH]c5ccccc5c4[C@H]4NC(=O)c5ccc(O)cc54)cc32)c1 [BI-2852, reference compound]"
  target under test: "cRaf/K-Ras (G12V) PPI (Homo sapiens, UniProt P01116, G12V)"
  pIC50: 5.80
